molecular target: Cloned Human Serotonin Receptor, Subtype 7 (h5HT7) (Homo sapiens); construct: purchased PerkinElmer 6120512; host or cells: CHO cells (membranes coated on Basic FlashPlate SMP200); test: Radioligand binding assay, [125I]LSD, h5HT7 expressed in CHO cells; conditions: radioligand [125I]LSD 0.82 nM, read-out: 5-HT7 IC50
Sequence (P34969 whole entry): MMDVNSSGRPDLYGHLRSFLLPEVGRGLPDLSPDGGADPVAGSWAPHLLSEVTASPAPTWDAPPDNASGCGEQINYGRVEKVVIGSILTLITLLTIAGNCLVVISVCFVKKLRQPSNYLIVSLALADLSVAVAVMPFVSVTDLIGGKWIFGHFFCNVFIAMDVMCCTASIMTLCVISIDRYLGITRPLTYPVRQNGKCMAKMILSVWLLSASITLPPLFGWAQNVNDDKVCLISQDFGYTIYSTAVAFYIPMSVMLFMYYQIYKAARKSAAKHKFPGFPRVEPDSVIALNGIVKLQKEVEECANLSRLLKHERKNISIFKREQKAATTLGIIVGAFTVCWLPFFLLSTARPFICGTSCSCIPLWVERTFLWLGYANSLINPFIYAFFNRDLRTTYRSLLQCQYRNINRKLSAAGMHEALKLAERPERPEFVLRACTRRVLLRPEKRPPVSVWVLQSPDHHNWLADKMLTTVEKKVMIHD
Counter-ions that a name gives are not always drawn.
So I've got a bunch of compounds here, and I need their pIC50 values.
Note on pIC50: it is the negative log10 of concentration, concentration in mol/L.

Which pIC50 is reported for this compound? Cc1nn(C)c(C)c1-c1ccc2c(c1)C(N(C)C)CC2 (stereo not drawn) [Example 1, dihydrochloride]
7.81

Which pIC50 is reported for this compound? CNC1CCc2ccc(-c3ccccc3OC)cc21 (stereo not drawn)
7.11

Which pIC50 is reported for this compound? COc1cccc(OC)c1-c1ccc2c(c1)C(N(C)C)CC2 (stereo not drawn)
7.27
